Test system: NCI-H1650
Experiment: relative viability (nuclei count vs DMSO), 5 days (fraction); higher = more cells survive
Conditions: first compound 0.253 µM
Each record is given yes if its reported relative viability is strictly below 0.3. Records at or above 0.3 are given no.

Worked examples, 7 molecules total:
[ask] Would you kindly verify if relative viability of Cc1cnc(-c2cnc(NCCNc3ccc(C#N)cn3)nc2-c2ccc(Cl)cc2Cl)[nH]1 + CC1(C)CCC(c2ccc(Cl)cc2)=C(CN2CCN(c3ccc(C(=O)NS(=O)(=O)c4ccc(N[C@H](CCN5CCOCC5)CSc5ccccc5)c(S(=O)(=O)C(F)(F)F)c4)cc3)CC2)C1 [Navitoclax] (partner 0.5 µM) is strictly less than 0.3?
[reply] no

[ask] is_below(relative viability, 0.3) for O=c1[nH]c2ccccc2n1C1CCN(CCCC(c2ccc(F)cc2)c2ccc(F)cc2)CC1 [Pimozide] + O=C(c1cc(Cc2n[nH]c(=O)c3ccccc23)ccc1F)N1CCN(C(=O)C2CC2)CC1 [Olaparib] (partner 8 µM) ?
[reply] no

[ask] Is relative viability of Cc1cnc(-c2cnc(NCCNc3ccc(C#N)cn3)nc2-c2ccc(Cl)cc2Cl)[nH]1 + CC(=O)Nc1cccc(-n2c(=O)n(C3CC3)c(=O)c3c(Nc4ccc(I)cc4F)n(C)c(=O)c(C)c32)c1 [Trametinib] (partner 0.02 µM) strictly below 0.3?
[reply] no

[ask] Dear reviewer, please state whether Cc1cnc(-c2cnc(NCCNc3ccc(C#N)cn3)nc2-c2ccc(Cl)cc2Cl)[nH]1 + Cc1nc(Nc2ncc(C(=O)Nc3c(C)cccc3Cl)s2)cc(N2CCN(CCO)CC2)n1 [Dasatinib] (partner 0.075 µM) has relative viability strictly beneath 0.3.
[reply] no

[ask] Just wondering, is relative viability of O=c1[nH]c2ccccc2n1C1CCN(CCCC(c2ccc(F)cc2)c2ccc(F)cc2)CC1 [Pimozide] + Cc1nc(Nc2ncc(C(=O)Nc3c(C)cccc3Cl)s2)cc(N2CCN(CCO)CC2)n1 [Dasatinib] (partner 0.075 µM) below 0.3?
[reply] yes

[ask] Problem: For the molecule Cc1cnc(-c2cnc(NCCNc3ccc(C#N)cn3)nc2-c2ccc(Cl)cc2Cl)[nH]1 + CCNC(=O)c1noc(-c2cc(C(C)C)c(O)cc2O)c1-c1ccc(CN2CCOCC2)cc1 [Luminespib] (partner 0.01 µM) , is relative viability under 0.3?
[reply] yes

[ask] Find out if reported relative viability for O=c1[nH]c2ccccc2n1C1CCN(CCCC(c2ccc(F)cc2)c2ccc(F)cc2)CC1 [Pimozide] + CC(C)C[C@H](NC(=O)[C@H](Cc1ccccc1)NC(=O)c1cnccn1)B(O)O [Bortezomib] (partner 0.002 µM) is less than 0.3
[reply] yes

Now, please, on to the next molecule.
[ask] Strictly below 0.3 in relative viability? O=c1[nH]c2ccccc2n1C1CCN(CCCC(c2ccc(F)cc2)c2ccc(F)cc2)CC1 [Pimozide] + CC(=O)Nc1cccc(-n2c(=O)n(C3CC3)c(=O)c3c(Nc4ccc(I)cc4F)n(C)c(=O)c(C)c32)c1 [Trametinib] (partner 0.02 µM)
[reply] no
